Tested on: 156681-154-R-J1-PDC complex spheroid viability;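 further: spheroids exposed to the agents for seven days; 100% = DMSO vehicle control viability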
Assay: Anticancer human tumor 156681-154-R-J1-PDC patient-derived melanoma cell line growth inhibition [CLK]; active means viability on the fitted dose curve at most 10% of control; inactive means the rest
Details: second compound 1 µM; first compound 0.01 µM
Labels: yes (1) for active, no (0) for inactive

INSERT INTO results (compound, system_under_test, assigned_class) VALUES
  ('CCN1CCN(Cc2ccc(Nc3ncc(F)c(-c4cc(F)c5nc(C)n(C(C)C)c5c4)n3)nc2)CC1 + CN1CCN(c2cc(C(=O)Nc3cc4cc(-c5cnn(C)c5)ccc4cn3)ccn2)CC1', '156681-154-R-J1-PDC complex spheroid viability', 'yes (1)'),
  ('COc1c(OCCCN2CCOCC2)ccc2c3n(c(=NC(=O)c4cnc(N)nc4)nc12)CCN3 + CNC(=O)c1ccc(Nc2nc(OC3CCCC3)c3c(-c4ccc5nc(C)oc5c4)c[nH]c3n2)c(OC)c1', '156681-154-R-J1-PDC complex spheroid viability', 'no (0)'),
  ('CCN1CCN(Cc2ccc(Nc3ncc(F)c(-c4cc(F)c5nc(C)n(C(C)C)c5c4)n3)nc2)CC1 + CNC(=O)c1ccc(Nc2nc(OC3CCCC3)c3c(-c4ccc5nc(C)oc5c4)c[nH]c3n2)c(OC)c1', '156681-154-R-J1-PDC complex spheroid viability', 'no (0)');
